Where do the numbers come from? From patent US12448624B2.

# Assay Overview: in vivo
# Measurement Conditions: male, Sprague-Dawley, rat, iv, 8 mg/kg

Compound Smiles | Cmax [ng/mL]
Nc1ccn([C@@H]2O[C@H](CO)[C@@H](O)C2(F)F)c(=O)n1 | 13300
